target: huPD-L1 (Homo sapiens, UniProt Q9NZQ7)
Sequence (Q9NZQ7 19-290): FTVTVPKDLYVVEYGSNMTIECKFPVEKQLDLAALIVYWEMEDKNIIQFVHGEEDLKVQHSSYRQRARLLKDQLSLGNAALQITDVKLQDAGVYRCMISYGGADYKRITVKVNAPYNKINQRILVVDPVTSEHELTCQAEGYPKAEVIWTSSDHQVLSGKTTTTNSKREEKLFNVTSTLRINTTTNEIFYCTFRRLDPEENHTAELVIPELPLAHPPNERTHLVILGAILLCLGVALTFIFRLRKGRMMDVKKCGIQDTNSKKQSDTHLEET
assayNotes: Flow binding to CHO cells stably expressing PD-L1
Set-up: huCTLA4 and huPD-L1, full-length mammalian surface expression constructs were generated; expressed in transfected cells; host or cells: CHO cells, lentiviral transduction, sorted to >98% purity
cond: Table E23; MFI at 33.3 nM relative to CD80 WT IgV-Fc
Description: Binding of selected immunomodulatory fusion proteins to cognate binding partners was assessed. […] Cells were sorted in a Bio-Rad S3 Cell Sorter (Bio-Rad Corp., USA) to >98% purity. […] For staining and analysis by flow cytometry, 100,000 cells of appropriate transfected cells were plated in 96-well round bottom plates. […] Cells were then washed twice with 150 μL/well stain buffer, fixed in 2% formaldehyde/PBS, and analyzed on Intellicyt flow cytometer (Intellicyt Corp., USA). […]

>  <molecule>
H18F/A26N/E35D/M47V/V68M/A71G/D90K (protein, UniProt P33681 35-288, looked up, variant H18F A26N E35D M47V V68M A71G D90K) T-lymphocyte activation …: VIHVTKEVKEVATLSCGFNVSVEELNQTRIYWQKDKKMVLTMMSGDVNIWPEYKNRTIFDITNNLSIMILGLRPSDEGTYECVVLKYEKKAFKREHLAEVTLSVKADFPTPSISDFEIPTSNIRRIICSTSGGFPEPHLSWLENGEELNAINTTVSQDPETELYAVSSKLDFNMTTNHSFMCLIKYGHLRVNQTFNWNTTKQEHFPDNLLPSWAITLISVNGIFVICCLTYCFAPRCRERRRNERLRRESVRPV

>  <PD-L1 Fold change to WT CD80>
135.7

$$$$
>  <molecule>
H18I/A26P/E35D/M47V/V68M/A71G (protein, UniProt P33681 35-288, looked up, variant H18I A26P E35D M47V V68M A71G) T-lymphocyte activation …: VIHVTKEVKEVATLSCGINVSVEELPQTRIYWQKDKKMVLTMMSGDVNIWPEYKNRTIFDITNNLSIMILGLRPSDEGTYECVVLKYEKDAFKREHLAEVTLSVKADFPTPSISDFEIPTSNIRRIICSTSGGFPEPHLSWLENGEELNAINTTVSQDPETELYAVSSKLDFNMTTNHSFMCLIKYGHLRVNQTFNWNTTKQEHFPDNLLPSWAITLISVNGIFVICCLTYCFAPRCRERRRNERLRRESVRPV

>  <PD-L1 Fold change to WT CD80>
393.4

$$$$
>  <molecule>
H18L/A26N/D46E/V68M/A71G/D90G (protein, UniProt P33681 35-288, looked up, variant H18L A26N D46E V68M A71G D90G) T-lymphocyte activation …: VIHVTKEVKEVATLSCGLNVSVEELNQTRIYWQKEKKMVLTMMSGEMNIWPEYKNRTIFDITNNLSIMILGLRPSDEGTYECVVLKYEKGAFKREHLAEVTLSVKADFPTPSISDFEIPTSNIRRIICSTSGGFPEPHLSWLENGEELNAINTTVSQDPETELYAVSSKLDFNMTTNHSFMCLIKYGHLRVNQTFNWNTTKQEHFPDNLLPSWAITLISVNGIFVICCLTYCFAPRCRERRRNERLRRESVRPV

>  <PD-L1 Fold change to WT CD80>
412.1

$$$$
>  <molecule>
H18V/A26P/E35D/M47L/V68M/A71G (protein, UniProt P33681 35-288, looked up, variant H18V A26P E35D M47L V68M A71G) T-lymphocyte activation …: VIHVTKEVKEVATLSCGVNVSVEELPQTRIYWQKDKKMVLTMMSGDLNIWPEYKNRTIFDITNNLSIMILGLRPSDEGTYECVVLKYEKDAFKREHLAEVTLSVKADFPTPSISDFEIPTSNIRRIICSTSGGFPEPHLSWLENGEELNAINTTVSQDPETELYAVSSKLDFNMTTNHSFMCLIKYGHLRVNQTFNWNTTKQEHFPDNLLPSWAITLISVNGIFVICCLTYCFAPRCRERRRNERLRRESVRPV

>  <PD-L1 Fold change to WT CD80>
317.6

$$$$
>  <molecule>
H18Y/A26P/E35D/M471/V68M/A71G (protein) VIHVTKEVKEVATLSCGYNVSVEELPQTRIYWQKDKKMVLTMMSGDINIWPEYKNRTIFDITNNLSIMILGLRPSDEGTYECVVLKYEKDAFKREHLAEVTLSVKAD

>  <PD-L1 Fold change to WT CD80>
330.2

$$$$

These entries and their values trace back to patent US20220177587A1.
